test system: Streptococcus faecalis ATCC 10541; test: Antibacterial spectrum, minimum inhibitory concentration (Table 1); format: cell-based; conditions: Enterococcus faecalis, ATCC10541; read-out: Minimum Inhibitory Concentration, Streptococcus faecalis ATCC 10541
Hi there, I'd appreciate the recorded MIC for every entry that follows.
Answer format: numeric, µg/mL implied, no suffix.

[ask] Can you share its MIC? I mean this molecule: COC12C(COC(N)=O)C3=C(C(=O)C(C)=C(N)C3=O)N1CC1C2N1C(C)=O (centres unmarked) [1a-acetyl mitomycin C, reference compound]
[reply] 6.25

[ask] Proceed to COC12C(COC(N)=O)C3=C(C(=O)C(C)=C(N)C3=O)N1CC1NC12 (single isomer, unassigned) [mitomycin C, reference compound]
[reply] 0.391

[ask] Another molecule to check: CCCCCC[C@@H](O)C/C=C\CCCCCCCC(=O)N1C2CN3C4=C(C(=O)C(N)=C(C)C4=O)C(COC(N)=O)C3(OC)C21 (some centres unmarked)
[reply] 0.782

[ask] One more molecule: CCCCCCCCCCCCCCCC(=O)N1C2CN3C4=C(C(=O)C(N)=C(C)C4=O)C(COC(N)=O)C3(OC)C21 (centres unmarked)
[reply] 0.782

[ask] Same for CCCC(=O)N1C2CN3C4=C(C(=O)C(N)=C(C)C4=O)C(COC(N)=O)C3(OC)C21 (centres unmarked) [1a-butyryl mitomycin C, reference compound]
[reply] 25

[ask] Then this molecule: CCCCCCCC/C=C\CCCCCCCC(=O)N1C2CN3C4=C(C(=O)C(N)=C(C)C4=O)C(COC(N)=O)C3(OC)C21 (centres unmarked)
[reply] 1.56

[ask] Another molecule to check: CCCCC/C=C\C/C=C\CCCCCCCC(=O)N1C2CN3C4=C(C(=O)C(N)=C(C)C4=O)C(COC(N)=O)C3(OC)C21 (centres unmarked)
[reply] 0.782

[ask] One more molecule: CCCCCCCCCCCCCC(=O)N1C2CN3C4=C(C(=O)C(N)=C(C)C4=O)C(COC(N)=O)C3(OC)C21 (centres unmarked)
[reply] 1.56

[ask] // repeat for CCCCCC/C=C/CCCCCCCCCC(=O)N1[C@H]2[C@@H]1CN1C3=C(C(=O)C(N)=C(C)C3=O)[C@@H](COC(N)=O)[C@@]21OC and report
[reply] 3.12

----------
system: Streptococcus faecalis ATCC 10541; experiment: Antibacterial spectrum, minimum inhibitory concentration (Table 1); type: cell-based; conditions: Enterococcus faecalis, ATCC10541; read-out: Minimum Inhibitory Concentration, Streptococcus faecalis ATCC 10541
readout_kind: MIC (µg/mL)
Provide the reading as a plain figure in µg/mL.

[ask] Consider the compound shown here: C/C=C/C(=O)N1C2CN3C4=C(C(=O)C(N)=C(C)C4=O)C(COC(N)=O)C3(OC)C21 (stereo not drawn) [1a-crotonoyl mitomycin C, reference compound] What is its recorded MIC?
[reply] 12.5

[ask] Also check CC/C=C\C/C=C\C/C=C\CCCCCCCC(=O)N1[C@H]2[C@@H]1CN1C3=C(C(=O)C(N)=C(C)C3=O)[C@@H](COC(N)=O)[C@@]21OC [1a-linolenoyl mitomycin C, la-linolenoyl mitomycin C]
[reply] 1.56

----------
A short record of MIC observed with Klebsiella penumoniae ATCC 10031 follows.
Numeric only. Scale: µg/mL

[ask] If you can, please state the reported MIC value of CCCCCC[C@@H](O)C/C=C\CCCCCCCC(=O)N1C2CN3C4=C(C(=O)C(N)=C(C)C4=O)C(COC(N)=O)C3(OC)C21 (stereo partly drawn) [1a-ricinoleoyl mitomycin C, la-ricinoleoyl mitomycin C] .
[reply] 0.782

[ask] Repeat for the following compound: CCCCC/C=C\C/C=C\CCCCCCCC(=O)N1C2CN3C4=C(C(=O)C(N)=C(C)C4=O)C(COC(N)=O)C3(OC)C21 (stereo not drawn) [1a-linoleoyl mitomycin C, la-linoleoyl mitomycin C]
[reply] 12.5

[ask] Moving on to CCCCCCCCCC(=O)N1C2CN3C4=C(C(=O)C(N)=C(C)C4=O)C(COC(N)=O)C3(OC)C21 (stereo not drawn) [1a-decanoyl mitomycin C, la-decanoyl mitomycin C]
[reply] 12.5

[ask] Do the same for COC12C(COC(N)=O)C3=C(C(=O)C(C)=C(N)C3=O)N1CC1C2N1C(C)=O (stereo not drawn) [1a-acetyl mitomycin C, reference compound] please
[reply] 0.782

[ask] Thanks! And C/C=C/C(=O)N1C2CN3C4=C(C(=O)C(N)=C(C)C4=O)C(COC(N)=O)C3(OC)C21 (stereo not drawn) [1a-crotonoyl mitomycin C, reference compound] ?
[reply] 0.782

[ask] Record: CCCCCCCC/C=C\CCCCCCCCCCCC(=O)N1C2CN3C4=C(C(=O)C(N)=C(C)C4=O)C(COC(N)=O)C3(OC)C21 (stereo not drawn) [la-ercoyl mitomycin C]
[reply] 50

[ask] // next record CC/C=C\C/C=C\C/C=C\CCCCCCCC(=O)N1[C@H]2[C@@H]1CN1C3=C(C(=O)C(N)=C(C)C3=O)[C@@H](COC(N)=O)[C@@]21OC [1a-linolenoyl mitomycin C, la-linolenoyl mitomycin C]
[reply] 6.25

[ask] Could you do the same for CCCCCC/C=C/CCCCCCCCCC(=O)N1[C@H]2[C@@H]1CN1C3=C(C(=O)C(N)=C(C)C3=O)[C@@H](COC(N)=O)[C@@]21OC [1a-vaccenoyl mitomycin C, la-vaccenoyl mitomycin C] , please?
[reply] 50

[ask] CCCC(=O)N1C2CN3C4=C(C(=O)C(N)=C(C)C4=O)C(COC(N)=O)C3(OC)C21 (stereo not drawn) [1a-butyryl mitomycin C, reference compound] , same question.
[reply] 3.12

----------
Below are MIC values recorded for Klebsiella penumoniae ATCC 10031.

[ask] Using the record for CCCCCCCCCCCCCCCC(=O)N1C2CN3C4=C(C(=O)C(N)=C(C)C4=O)C(COC(N)=O)C3(OC)C21 (stereo not drawn) , report its MIC.
[reply] > 50 µg/mL

[ask] Continue with CCCCCCCCCCCCCCCCCC(=O)N1C2CN3C4=C(C(=O)C(N)=C(C)C4=O)C(COC(N)=O)C3(OC)C21 (stereo not drawn)
[reply] > 50 µg/mL

[ask] Same for COC12C(COC(N)=O)C3=C(C(=O)C(C)=C(N)C3=O)N1CC1NC12 (single isomer, unassigned) [mitomycin C, reference compound]
[reply] < 0.025 µg/mL

[ask] Also CCCCCCCCCCCCCC(=O)N1C2CN3C4=C(C(=O)C(N)=C(C)C4=O)C(COC(N)=O)C3(OC)C21 (stereo not drawn) , if possible.
[reply] > 50 µg/mL

[ask] Continue with CCCCCCCCCCCC(=O)N1C2CN3C4=C(C(=O)C(N)=C(C)C4=O)C(COC(N)=O)C3(OC)C21 (stereo not drawn)
[reply] > 50 µg/mL

[ask] Next: CCCCCCCC/C=C\CCCCCCCC(=O)N1C2CN3C4=C(C(=O)C(N)=C(C)C4=O)C(COC(N)=O)C3(OC)C21 (stereo not drawn)
[reply] > 50 µg/mL

Data provenance: patent US4021449A
